Provide the recorded Bliss excess for the entries that follow.
Tested on: SUIT-2 (Pancreatic Carcinoma);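 further: after 72 h of two-drug dosing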
Experiment: Bliss excess, mean over the matrix (fraction); higher = more synergy

Please look up its Bliss excess: COc1cccc2c1C(=O)c1c(O)c3c(c(O)c1C2=O)C[C@@](O)(C(=O)CO)C[C@@H]3O[C@H]1C[C@H](N)[C@H](O)[C@H](C)O1 [Doxorubicin] + Cc1cc2ncnn2cc1Nc1ncc2c(n1)n(C1CCOCC1)c(=O)n2C [AZD7648] (first compound max 1 µM, 7x7, partner max 10 µM)
0.0432

Please look up its Bliss excess: COc1cccc(OCCCN)c1-c1cc(Nc2cnc(C#N)cn2)n[nH]1 [Prexasertib] + C[C@@H]1COCCN1C2=NC(=NC(=C2)C3(CC3)[S@](=N)(=O)C)C4=C5C=CNC5=NC=C4 [AZD6738] (first compound max 1 µM, 7x7, partner max 10 µM)
-0.03

----------
System: LS-513 (Colorectal Carcinoma)
Assay: combination Emax (second highest fraction inhibited in the dose matrix, 72 h); higher = more inhibition; extreme values may be limits of the assay
Assign class by combination Emax: not lower than 0.7 means 1 (yes); lower than 0.7 means 0 (no).

Can COc1nnc2ccc(N3CCC(c4ccc(OCCN5CCN(C)C(=O)[C@H]5C)cc4)CC3)nn12 [AZD5153] + C=CCn1c(=O)c2cnc(Nc3ccc(N4CCN(C)CC4)cc3)nc2n1-c1cccc(C(C)(C)O)n1 [AZD1775] (first compound max 1 µM, partner max 1 µM) be said to have combination Emax at or above 0.7?
1 (yes)

Can CN(C)CCCOc1ccc(-c2ccc3ncc4c(c3c2)n(C2CCOCC2)c(=O)n4C)cn1 [AZD0156] + O=C(c1cc(Cc2n[nH]c(=O)c3ccccc23)ccc1F)N1CCN(C(=O)C2CC2)CC1 [Olaparib] (first compound max 3 µM, partner max 3 µM) be said to have combination Emax at or above 0.7?
0 (no)

Can N#Cc1cnc(Nc2cc(NC[C@H]3CNCCO3)c(C(F)(F)F)cn2)cn1 [SRA737] + O=c1[nH]cc(F)c(=O)[nH]1 [5-Fluorouracil] (first compound max 10 µM, 7x7, partner max 20 µM) be said to have combination Emax at or above 0.7?
0 (no)

Can Cn1cnc2c(F)c(Nc3ccc(Br)cc3Cl)c(C(=O)NOCCO)cc21 [Selumetinib] + CC(C)n1c(=O)n(C)c2cnc3cc(F)c(-c4ccc(OCCCN5CCCCC5)nc4)cc3c21 [AZD1390] (first compound max 10 µM, 7x7, partner max 0.3 µM) be said to have combination Emax at or above 0.7?
1 (yes)

Can COc1cccc2c1C(=O)c1c(O)c3c(c(O)c1C2=O)C[C@@](O)(C(=O)CO)C[C@@H]3O[C@H]1C[C@H](N)[C@H](O)[C@H](C)O1 [Doxorubicin] + Cc1cc2ncnn2cc1Nc1ncc2c(n1)n(C1CCOCC1)c(=O)n2C [AZD7648] (first compound max 1 µM, 7x7, partner max 10 µM) be said to have combination Emax at or above 0.7?
0 (no)

Can O=C(c1cc(Cc2n[nH]c(=O)c3ccccc23)ccc1F)N1CCN(C(=O)C2CC2)CC1 [Olaparib] + Cc1c2c(nn1C)CSCc1cc(n(C)n1)CSc1cc(c3ccccc3c1)OCCCc1c(C(=O)O)n(C)c3c-2c(Cl)ccc13 [AZD5991] (first compound max 10 µM, 7x7, partner max 1 µM) be said to have combination Emax at or above 0.7?
0 (no)
